Entry source: patent US5455329A

# System: embryonal chicken chondrocytes
# TEST_METHOD_NOTES: Increase of DNA synthesis of embryonal chicken chondrocytes
# Assay type: cell-based
# APPLIED_CONDITIONS: relative to recombinant hPTH (=100); stimulation beyond the base level; chondrocytes
Exercise: for every item that follows, state its recorded DNA synthesis (%) relative activity.
Give bare numbers, in %.

Consider the following illustrative entries.
1. K27L: hPTH variant Lys(27) -> Leu(27), lengthened N-terminally by one proline (protein, UniProt P01270 32-115, looked up, variant K27L, Parathyroid hormone N-terminal proline extension, hPTH variant Lys(27) -> Leu(27), lengthened N-terminally by one proline) Parathyroid hormone: SVSEIQLMHNLGKHLNSMERVEWLRKLLQDVHNFVALGAPLAPRDAGSQRPRKKEDNVLVESHEKSLGEADKADVNVLTKAKSQ :: 70
2. R20E: hPTH variant Arg(20) -> Glu(20), lengthened N-terminally by one proline (protein, UniProt P01270 32-115, looked up, variant R20E, Parathyroid hormone N-terminal proline extension, hPTH variant Arg(20) -> Glu(20), lengthened N-terminally by one proline) Parathyroid hormone: SVSEIQLMHNLGKHLNSMEEVEWLRKKLQDVHNFVALGAPLAPRDAGSQRPRKKEDNVLVESHEKSLGEADKADVNVLTKAKSQ :: 0
3. H32R: hPTH variant His(32) -> Arg(32), lengthened N-terminally by one proline (protein, UniProt P01270 32-115, looked up, variant H32R, Parathyroid hormone N-terminal proline extension, hPTH variant His(32) -> Arg(32), lengthened N-terminally by one proline) Parathyroid hormone: SVSEIQLMHNLGKHLNSMERVEWLRKKLQDVRNFVALGAPLAPRDAGSQRPRKKEDNVLVESHEKSLGEADKADVNVLTKAKSQ :: 36
4. E4R, R20E: hPTH variant Glu(4) Arg(20) -> Arg(4), Glu(20), lengthened N-terminally by one proline (protein, UniProt P01270 32-115, looked up, variant E4R R20E, Parathyroid hormone N-terminal proline extension, hPTH variant Glu(4) Arg(20) -> Arg(4), Glu(20), lengthened N-terminally by one proline) Parathyroid hormone: SVSRIQLMHNLGKHLNSMEEVEWLRKKLQDVHNFVALGAPLAPRDAGSQRPRKKEDNVLVESHEKSLGEADKADVNVLTKAKSQ :: 58
5. E4R: hPTH variant Glu(4) -> Arg(4), lengthened N-terminally by one proline (protein, UniProt P01270 32-115, looked up, variant E4R, Parathyroid hormone N-terminal proline extension, hPTH variant Glu(4) -> Arg(4), lengthened N-terminally by one proline) Parathyroid hormone: SVSRIQLMHNLGKHLNSMERVEWLRKKLQDVHNFVALGAPLAPRDAGSQRPRKKEDNVLVESHEKSLGEADKADVNVLTKAKSQ :: 88
6. H32K: hPTH variant His(32) -> Lys(32), lengthened N-terminally by one proline (protein, UniProt P01270 32-115, looked up, variant H32K, Parathyroid hormone N-terminal proline extension, hPTH variant His(32) -> Lys(32), lengthened N-terminally by one proline) Parathyroid hormone: SVSEIQLMHNLGKHLNSMERVEWLRKKLQDVKNFVALGAPLAPRDAGSQRPRKKEDNVLVESHEKSLGEADKADVNVLTKAKSQ :: 22

Kindly consider the entry below.
Tell me the measured DNA synthesis (%) relative activity of Q29A: hPTH variant Gln(29) -> Ala(29), lengthened N-terminally by one proline (protein, UniProt P01270 32-115, looked up, variant Q29A, Parathyroid hormone N-terminal proline extension, hPTH variant Gln(29) -> Ala(29), lengthened N-terminally by one proline) Parathyroid hormone: SVSEIQLMHNLGKHLNSMERVEWLRKKLADVHNFVALGAPLAPRDAGSQRPRKKEDNVLVESHEKSLGEADKADVNVLTKAKSQ , please.
8
